Measured values drawn from patent US6319897A for this set.

# ASSAY_SYSTEM: alternative pathway of complement activation (Homo sapiens, UniProt P01024)
# Sequence (P01024 23-1663): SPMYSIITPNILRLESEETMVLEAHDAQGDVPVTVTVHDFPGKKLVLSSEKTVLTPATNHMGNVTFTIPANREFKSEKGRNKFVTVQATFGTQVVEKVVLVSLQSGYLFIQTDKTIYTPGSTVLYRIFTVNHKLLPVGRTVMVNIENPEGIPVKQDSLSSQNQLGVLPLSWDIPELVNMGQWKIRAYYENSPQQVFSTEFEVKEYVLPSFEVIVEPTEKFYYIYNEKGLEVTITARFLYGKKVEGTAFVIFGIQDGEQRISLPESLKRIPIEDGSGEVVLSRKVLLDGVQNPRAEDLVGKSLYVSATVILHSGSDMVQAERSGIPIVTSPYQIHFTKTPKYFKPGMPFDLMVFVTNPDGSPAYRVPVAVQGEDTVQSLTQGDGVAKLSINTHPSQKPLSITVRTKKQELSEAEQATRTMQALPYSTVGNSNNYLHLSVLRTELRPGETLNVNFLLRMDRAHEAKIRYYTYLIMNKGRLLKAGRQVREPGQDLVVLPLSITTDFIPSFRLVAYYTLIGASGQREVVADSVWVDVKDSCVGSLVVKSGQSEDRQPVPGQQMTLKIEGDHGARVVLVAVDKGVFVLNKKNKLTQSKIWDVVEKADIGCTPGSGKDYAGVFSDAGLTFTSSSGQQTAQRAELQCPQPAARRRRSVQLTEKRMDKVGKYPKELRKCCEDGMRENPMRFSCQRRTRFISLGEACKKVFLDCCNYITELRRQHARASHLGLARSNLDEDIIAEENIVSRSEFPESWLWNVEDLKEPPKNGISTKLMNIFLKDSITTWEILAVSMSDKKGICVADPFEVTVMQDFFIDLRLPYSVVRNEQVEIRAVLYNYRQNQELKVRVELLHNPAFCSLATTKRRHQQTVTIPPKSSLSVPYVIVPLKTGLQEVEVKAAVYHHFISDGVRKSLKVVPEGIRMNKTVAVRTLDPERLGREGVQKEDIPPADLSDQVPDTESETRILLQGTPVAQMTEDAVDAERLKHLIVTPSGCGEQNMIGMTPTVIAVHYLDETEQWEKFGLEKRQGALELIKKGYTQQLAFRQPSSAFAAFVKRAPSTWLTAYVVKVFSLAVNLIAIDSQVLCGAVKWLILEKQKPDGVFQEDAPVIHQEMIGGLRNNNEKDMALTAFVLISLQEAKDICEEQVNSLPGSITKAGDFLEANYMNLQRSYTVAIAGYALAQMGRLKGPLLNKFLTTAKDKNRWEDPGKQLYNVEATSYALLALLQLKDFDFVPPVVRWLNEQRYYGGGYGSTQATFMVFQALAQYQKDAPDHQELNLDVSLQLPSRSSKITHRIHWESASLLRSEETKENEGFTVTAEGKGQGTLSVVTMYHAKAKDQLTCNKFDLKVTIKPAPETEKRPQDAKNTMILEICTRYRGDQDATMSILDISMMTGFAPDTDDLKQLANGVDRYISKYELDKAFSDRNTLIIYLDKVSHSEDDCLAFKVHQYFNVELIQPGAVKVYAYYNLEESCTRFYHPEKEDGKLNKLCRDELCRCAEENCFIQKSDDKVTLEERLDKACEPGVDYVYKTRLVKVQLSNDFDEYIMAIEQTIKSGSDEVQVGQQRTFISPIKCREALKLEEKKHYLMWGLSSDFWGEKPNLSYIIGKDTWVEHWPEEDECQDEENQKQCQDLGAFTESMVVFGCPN
# TEST_METHOD_NOTES: Hemolytic assay, alternative pathway: lysis of rabbit erythrocytes in normal human serum with MgEGTA
# Type: cell-based
# RECORDED_CONDITIONS: read-out: A[…] IC50
Where a SMILES comes first, the peptide text is derived from it. Bridges are numbered along the chain shown (N, C = ends).
RESULT_TYPE: pIC50
Numbers only, as −log10 of the molar value.

| COMPOUND | pIC50 |
| --- | --- |
| CC(C)[C@@H]1NC(=O)[C@H](C(C)C)NC(=O)[C@@H](N)CSSC[C@@H](C(N)=O)NC(=O)[C@H](CCCNC(=N)N)NC(=O)[C@H](Cc2c[nH]cn2)NC(=O)[C@H](Cc2c[nH]cn2)NC(=O)CNC(=O)[C@H](Cc2c[nH]c3ccccc23)NC(=O)[C@H](CC(=O)O)NC(=O)[C@H](CCC(N)=O)NC1=O [VI] (H-CVVQDWGHHRC-NH2; disulfide 1-11) | 4.48 |
| CC(C)[C@@H]1NC(=O)[C@@H](N)CSSC[C@@H](C(N)=O)NC(=O)[C@H](CCCNC(=N)N)NC(=O)[C@H](Cc2c[nH]cn2)NC(=O)[C@H](Cc2c[nH]cn2)NC(=O)CNC(=O)[C@H](Cc2c[nH]c3ccccc23)NC(=O)[C@H](CC(=O)O)NC(=O)[C@H](CCC(N)=O)NC(=O)[C@H](C)NC1=O [XVI] (H-CVAQDWGHHRC-NH2; disulfide 1-11) | 4.17 |
| CC(C)[C@@H]1NC(=O)[C@H](C(C)C)NC(=O)[C@@H](N)CSSC[C@@H](C(N)=O)NC(=O)[C@H](CCCNC(=N)N)NC(=O)[C@H](Cc2c[nH]cn2)NC(=O)[C@H](Cc2c[nH]cn2)NC(=O)CNC(=O)[C@H](Cc2c[nH]c3ccccc23)NC(=O)[C@H](C)NC(=O)[C@H](CCC(N)=O)NC1=O [XVIII] (H-CVVQAWGHHRC-NH2; disulfide 1-11) | 3.59 |
| CC(C)[C@@H]1NC(=O)[C@H](C)NC(=O)[C@@H](N)CSSC[C@@H](C(N)=O)NC(=O)[C@H](CCCNC(=N)N)NC(=O)[C@H](Cc2c[nH]cn2)NC(=O)[C@H](Cc2c[nH]cn2)NC(=O)CNC(=O)[C@H](Cc2c[nH]c3ccccc23)NC(=O)[C@H](CC(=O)O)NC(=O)[C@H](CCC(N)=O)NC1=O [XV] (H-CAVQDWGHHRC-NH2; disulfide 1-11) | 2.92 |
| CC(C)[C@@H]1NC(=O)[C@H](C(C)C)NC(=O)[C@@H](N)CSSC[C@@H](C(N)=O)NC(=O)[C@H](CCCNC(=N)N)NC(=O)[C@H](Cc2c[nH]cn2)NC(=O)[C@H](Cc2c[nH]cn2)NC(=O)CNC(=O)[C@H](Cc2c[nH]c3ccccc23)NC(=O)[C@H](CC(=O)O)NC(=O)[C@H](C)NC1=O [XVII] (H-CVVADWGHHRC-NH2; disulfide 1-11) | 3.04 |

Dear colleague, could you please provide pIC50 for the compounds listed below?
1. CC(C)[C@@H]1NC(=O)[C@H](C(C)C)NC(=O)[C@@H](N)CSSC[C@@H](C(N)=O)NC(=O)[C@H](CCCNC(=N)N)NC(=O)[C@H](Cc2c[nH]cn2)NC(=O)[C@H](C)NC(=O)CNC(=O)[C@H](Cc2c[nH]c3ccccc23)NC(=O)[C@H](CC(=O)O)NC(=O)[C@H](CCC(N)=O)NC1=O [XXI] (H-CVVQDWGAHRC-NH2; disulfide 1-11)
2. CC(C)[C@@H]1NC(=O)[C@H](C(C)C)NC(=O)[C@@H](N)CSSC[C@@H](C(N)=O)NC(=O)[C@H](CCCNC(=N)N)NC(=O)[C@H](C)NC(=O)[C@H](Cc2c[nH]cn2)NC(=O)CNC(=O)[C@H](Cc2c[nH]c3ccccc23)NC(=O)[C@H](CC(=O)O)NC(=O)[C@H](CCC(N)=O)NC1=O [XXII] (H-CVVQDWGHARC-NH2; disulfide 1-11)

1. 4.82
2. 4.13
